The measured values listed here are drawn from ChEMBL document CHEMBL1122090.

Molecular target: Adenylate kinase isoenzyme 1 (Rattus norvegicus) (UniProt P39069)
Assay: Inhibition index was the ratio between KM of AMP and Ki of AK M
Type: functional
measure: Inhibition index
Reply briefly: the number, and no unit.

The following compounds have reported results that may help.
[
  {
    "compound": "CN(C)c1nc(N)c2ncn(C3O[C@H](COP(=O)(O)O)[C@@H](O)[C@H]3O)c2n1 (some centres undefined)",
    "target under test": "Adenylate kinase isoenzyme 1 (Rattus norvegicus) (UniProt P39069)",
    "Inhibition index": 0.077
  },
  {
    "compound": "Nc1ncnc2c1ncn2[C@@H]1O[C@H](CCP(=O)(O)O)[C@@H](O)[C@H]1O",
    "target under test": "Adenylate kinase isoenzyme 1 (Rattus norvegicus) (UniProt P39069)",
    "Inhibition index": 0.14
  },
  {
    "compound": "Nc1nc(N)c2ncn([C@@H]3O[C@H](COP(=O)(O)O)[C@@H](O)[C@H]3O)c2n1",
    "target under test": "Adenylate kinase isoenzyme 1 (Rattus norvegicus) (UniProt P39069)",
    "Inhibition index": 0.17
  },
  {
    "compound": "C[C@H](OP(=O)(O)O)[C@H]1OC(n2cnc3c(N)ncnc32)[C@H](O)[C@@H]1O (some centres undefined)",
    "target under test": "Adenylate kinase isoenzyme 1 (Rattus norvegicus) (UniProt P39069)",
    "Inhibition index": 0.28
  },
  {
    "compound": "CC1(C)O[C@@H]2[C@H](O1)[C@@H](COP(=O)(O)O)O[C@H]2n1cnc2c(N)ncnc21",
    "target under test": "Adenylate kinase isoenzyme 1 (Rattus norvegicus) (UniProt P39069)",
    "Inhibition index": 0.25
  },
  {
    "compound": "C[C@@H]1[C@H](O)[C@@H](COP(=O)(O)O)O[C@H]1n1cnc2c(N)ncnc21",
    "target under test": "Adenylate kinase isoenzyme 1 (Rattus norvegicus) (UniProt P39069)",
    "Inhibition index": 0.11
  }
]

Query: // returns reported Inhibition index for input `CNc1nc(N)c2ncn([C@@H]3O[C@H](COP(=O)(O)O)[C@@H](O)[C@H]3O)c2n1`
Reply: 0.2

Query: // returns reported Inhibition index for input CC[C@H](OP(=O)(O)O)[C@H]1OC(n2cnc3c(N)ncnc32)[C@H](O)[C@@H]1O (some centres undefined)
Reply: 0.64

Query: // returns reported Inhibition index for input `CCNc1nc(N)c2ncn([C@@H]3O[C@H](COP(=O)(O)O)[C@@H](O)[C@H]3O)c2n1`
Reply: 0.14

---

Molecular target: Adenylate kinase isoenzyme 1 (Rattus norvegicus)
Sequence (whole entry): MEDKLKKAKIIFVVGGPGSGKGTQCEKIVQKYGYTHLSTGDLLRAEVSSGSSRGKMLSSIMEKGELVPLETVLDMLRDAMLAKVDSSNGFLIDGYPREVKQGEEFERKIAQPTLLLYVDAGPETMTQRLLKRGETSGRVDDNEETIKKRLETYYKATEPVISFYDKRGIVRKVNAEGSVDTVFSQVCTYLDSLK
Test: Relative Vmax value to Adenylate kinase M isoenzyme (adenylate kinase 1, AK1)
measure: Relative Vmax
Reply briefly: the number, and no unit.

The following molecules have reported results that may help.
[
  {
    "molecule": "C[C@@H]1[C@H](O)[C@@H](COP(=O)(O)O)O[C@H]1n1cnc2c(N)ncnc21",
    "result number": 5.6
  },
  {
    "molecule": "CC(=O)NCCNc1ncnc2c1ncn2C1O[C@H](COP(=O)(O)O)[C@@H](O)[C@H]1O (stereo not given in full)",
    "result number": 0
  },
  {
    "molecule": "Nc1ncnc2c1ncn2[C@@H]1O[C@H](COS(=O)(=O)O)[C@@H](O)[C@H]1O",
    "result number": 0
  },
  {
    "molecule": "CC1O[C@@H]2[C@H](O1)[C@@H](COP(=O)(O)O)O[C@H]2n1cnc2c(N)ncnc21 (stereo not given in full)",
    "result number": 0
  },
  {
    "molecule": "Nc1nc(N)c2ncn([C@@H]3O[C@H](COP(=O)(O)O)[C@@H](O)[C@H]3O)c2n1",
    "result number": 7.1
  }
]

Query: // returns reported Relative Vmax for input C[C@H](OP(=O)(O)O)[C@H]1OC(n2cnc3c(N)ncnc32)[C@H](O)[C@@H]1O (stereo not given in full)
Reply: 1

Query: // returns reported Relative Vmax for input `Nc1ncnc2c1ncn2[C@@H]1O[C@H](CCP(=O)(O)O)[C@@H](O)[C@H]1O`
Reply: 2.2

Query: // returns reported Relative Vmax for input C[C@@H](OP(=O)(O)O)[C@H]1OC(n2cnc3c(N)ncnc32)[C@H](O)[C@@H]1O (stereo not given in full)
Reply: 0

Query: // returns reported Relative Vmax for input `Nc1ncnc2c1ncn2[C@@H]1O[C@H](/C=C/P(=O)(O)O)[C@@H](O)[C@H]1O`
Reply: 2.1

Query: // returns reported Relative Vmax for input CCC[C@@H](OP(=O)(O)O)[C@H]1OC(n2cnc3c(N)ncnc32)[C@H](O)[C@@H]1O (stereo not given in full)
Reply: 0

Query: // returns reported Relative Vmax for input `CCNc1nc(N)c2ncn([C@@H]3O[C@H](COP(=O)(O)O)[C@@H](O)[C@H]3O)c2n1`
Reply: 0.4

Query: // returns reported Relative Vmax for input `Nc1nc(Cl)nc2c1ncn2[C@@H]1O[C@H](COP(=O)(O)O)[C@@H](O)[C@H]1O`
Reply: 0.13

Query: // returns reported Relative Vmax for input `CNc1ncnc2c1ncn2[C@@H]1O[C@H](COP(=O)(O)O)[C@@H](O)[C@H]1O`
Reply: 0

Query: // returns reported Relative Vmax for input `CC1(C)O[C@@H]2[C@H](O1)[C@@H](COP(=O)(O)O)O[C@H]2n1cnc2c(N)ncnc21`
Reply: 0

Query: // returns reported Relative Vmax for input CCC1O[C@@H]2[C@H](O1)[C@@H](COP(=O)(O)O)O[C@H]2n1cnc2c(N)ncnc21 (stereo not given in full)
Reply: 0

Query: // returns reported Relative Vmax for input `Nc1ncnc2c1nc(Br)n2[C@@H]1O[C@H](COP(=O)(O)O)[C@@H](O)[C@H]1O`
Reply: 0

---

Target: Adenylate kinase 2, mitochondrial (Rattus norvegicus)
Experiment: Relative Vmax value to rat adenylate kinase II.
measure: Relative Vmax

[
  {
    "compound": "CC1O[C@@H]2[C@H](O1)[C@@H](COP(=O)(O)O)O[C@H]2n1cnc2c(N)ncnc21 (some centres not stated)",
    "Relative Vmax": 0
  },
  {
    "compound": "Nc1ncnc2c1ncn2[C@@H]1O[C@H](COS(=O)(=O)O)[C@@H](O)[C@H]1O",
    "Relative Vmax": 0
  },
  {
    "compound": "Nc1nc(Cl)nc2c1ncn2[C@@H]1O[C@H](COP(=O)(O)O)[C@@H](O)[C@H]1O",
    "Relative Vmax": 5.8
  },
  {
    "compound": "C[C@H](OP(=O)(O)O)[C@H]1OC(n2cnc3c(N)ncnc32)[C@H](O)[C@@H]1O (some centres not stated)",
    "Relative Vmax": 7
  },
  {
    "compound": "Nc1ncnc2c1ncn2[C@@H]1O[C@H](COP(=O)(O)O)[C@@H](O)[C@H]1O",
    "Relative Vmax": 100
  },
  {
    "compound": "Cn1cnc2c(ncn2[C@@H]2O[C@H](COP(=O)(O)O)[C@@H](O)[C@H]2O)c1=N",
    "Relative Vmax": 0
  },
  {
    "compound": "Nc1ncnc2c1nc(Br)n2[C@@H]1O[C@H](COP(=O)(O)O)[C@@H](O)[C@H]1O",
    "Relative Vmax": 0
  },
  {
    "compound": "CCC[C@@H](OP(=O)(O)O)[C@H]1OC(n2cnc3c(N)ncnc32)[C@H](O)[C@@H]1O (some centres not stated)",
    "Relative Vmax": 0
  }
]

Query: // returns reported Relative Vmax for input CCSc1nc2c(N)ncnc2n1C1O[C@H](COP(=O)(O)O)[C@@H](O)[C@H]1O (some centres not stated)
Reply: 0

Query: // returns reported Relative Vmax for input `CO[C@@H]1[C@H](O)[C@@H](COP(=O)(O)O)O[C@H]1n1cnc2c(N)ncnc21`
Reply: > 0

Query: // returns reported Relative Vmax for input COP(=O)(O)C[C@H]1OC(n2cnc3c(N)ncnc32)[C@H](O)[C@@H]1O (some centres not stated)
Reply: 0

Query: // returns reported Relative Vmax for input `CNc1nc(N)c2ncn([C@@H]3O[C@H](COP(=O)(O)O)[C@@H](O)[C@H]3O)c2n1`
Reply: 9.7

Query: // returns reported Relative Vmax for input CCC1O[C@@H]2[C@H](O1)[C@@H](COP(=O)(O)O)O[C@H]2n1cnc2c(N)ncnc21 (some centres not stated)
Reply: 0

Query: // returns reported Relative Vmax for input C[C@@H](OP(=O)(O)O)[C@H]1OC(n2cnc3c(N)ncnc32)[C@H](O)[C@@H]1O (some centres not stated)
Reply: > 0

Query: // returns reported Relative Vmax for input CC[C@@H](OP(=O)(O)O)[C@H]1OC(n2cnc3c(N)ncnc32)[C@H](O)[C@@H]1O (some centres not stated)
Reply: 0

Query: // returns reported Relative Vmax for input `CO[C@H]1[C@@H](O)[C@H](n2cnc3c(N)ncnc32)O[C@@H]1COP(=O)(O)O`
Reply: > 0

Query: // returns reported Relative Vmax for input `Nc1nc(N)c2ncn([C@@H]3O[C@H](COP(=O)(O)O)[C@@H](O)[C@H]3O)c2n1`
Reply: 18

Query: // returns reported Relative Vmax for input CN(C)c1nc(N)c2ncn(C3O[C@H](COP(=O)(O)O)[C@@H](O)[C@H]3O)c2n1 (some centres not stated)
Reply: 0

Query: // returns reported Relative Vmax for input `Nc1ncnc2c1ncn2[C@@H]1O[C@H](CCP(=O)(O)O)[C@@H](O)[C@H]1O`
Reply: 11.2
